target: BCL6 (Homo sapiens (Human)); experiment: Immunofluorescence high content imaging of BCL6 degradation in T47D cells; assay type: cell-based
observed.property: IC50

1. CNC(=O)[C@H](C)Oc1cc2cc(Nc3nc(N4CCC(CN5CCN(c6ccc7c(c6)C(=O)N([C@@H]6CCC(=O)NC6=O)C7=O)CC5)CC4)ncc3Cl)ccc2n(C)c1=O; ≥ 100 nM
2. CNC(=O)COc1cc2cc(Nc3nc(N4CCN(C5CCN(c6cccc7c6C(=O)N(C6CCC(=O)NC6=O)C7=O)CC5)CC4)ncc3Cl)ccc2n(C)c1=O (stereo not drawn); < 10 nM

Query: State its IC50 for this compound: CNC(=O)COc1cc2cc(Nc3nc(N4CCO[C@H](COc5ccc6c(c5)C(=O)N(C5CCC(=O)NC5=O)C6=O)C4)ncc3Cl)ccc2n(C)c1=O (stereo partly drawn)
Reply: ≥ 100 nM

###

target: BCL6 (Homo sapiens (Human), UniProt P41182); assay: BCL6 TR-FRET assay (BCL6-Avitag-Biotin / BCoR-Cy5 peptide); format: binding; conditions: class symbols A-D; read-out: IC50 (nM)***
observed.property: IC50

1. CC(=O)COc1cc2cc(Nc3nc(N4CCN(CCCN5CCN(c6ccc7c(c6)CN(C6CCC(=O)NC6=O)C7=O)CC5)CC4)ncc3Cl)ccc2n(C)c1=O (centres unmarked); < 10 nM
2. CC(=O)COc1cc2cc(Nc3nc(N4CCN(CC5CCN(c6ccc7c(c6)C(=O)N(C6CCC(=O)NC6=O)C7=O)CC5)CC4)ncc3Cl)ccc2n(C)c1=O (centres unmarked); < 10 nM
3. CN(C)C(=O)COc1cc2cc(Nc3nc(N4CCC(CN5CCN(c6ccc7c(c6)C(=O)N(C6CCC(=O)NC6=O)C7=O)CC5)CC4)ncc3Cl)ccc2n(C)c1=O (centres unmarked); 50 to 100 nM
4. CC(=O)COc1cc2cc(Nc3nc(N4CC(OCCN5CCN(c6ccc7c(c6)C(=O)N(C6CCC(=O)NC6=O)C7=O)CC5)C4)ncc3Cl)ccc2n(C)c1=O (centres unmarked); ≥ 100 nM

Query: Report IC50 on BCL6 (Homo sapiens (Human), UniProt P41182) for this entry: CC(=O)COc1cc2cc(Nc3nc(N4CCC(CN5CCN(c6ccc7c(c6)C(=O)N(C6CCC(=O)NC6=O)C7=O)CC5)CC4)ncc3Cl)ccc2n(C)c1=O (centres unmarked)
Reply: 50 to 100 nM

###

biological target: BCL6 (Homo sapiens (Human)); assay: BCL6 TR-FRET assay (BCL6-Avitag-Biotin / BCoR-Cy5 peptide); assay type: binding; conditions: class symbols A-D; read-out: IC50 (nM)***
observed.property: IC50

Examples from the recorded data:
1. CNC(=O)COc1cc2cc(Nc3nc(N4CCC(OCCN5CCN(Cc6ccc(C#Cc7ccc8c(c7)CN(C7CCC(=O)NC7=O)C8=O)cc6)CC5)CC4)ncc3Cl)ccc2n(C)c1=O (stereo not drawn) [compound 119]; < 10 nM
2. CC(=O)COc1cc2cc(Nc3nc(N4CCC(N5CCC(N(C)CCOc6ccc7c(c6)CN(C6CCC(=O)NC6=O)C7=O)C5)CC4)ncc3Cl)ccc2n(C)c1=O (stereo not drawn) [compound 157]; < 10 nM

With those in mind, consider the next molecule.
Query: State its IC50 for this molecule: CC(=O)COc1cc2cc(Nc3nc(N4CCC(CCN5CCN(c6ccc7c(c6)C(=O)N(C6CCC(=O)NC6=O)C7=O)CC5)CC4)ncc3Cl)ccc2n(C)c1=O (stereo not drawn) [compound 162]
Reply: 10 to 50 nM
